# Test system: caffeine solution containing 500 ppm
# Assay Protocol: Bitterness reduction in a bitter substance solution (expert panel), caffeine
# Type: in vivo
# Condition Set: 25 ppm test substance + 500 ppm caffeine vs 500 ppm caffeine alone; * = significant

>  <Molecule>
COc1cc(C[C@H]2C(=O)OC[C@@H]2Cc2ccc(OC)c(OC)c2)ccc1O [(−)-arctigenin (4)]

>  <Value Units>
%

>  <Reduction in the bitterness impression>
11.5

$$$$
>  <Molecule>
COc1cc(C2c3cc(O)c(OC)cc3CC(CO)C2CO)ccc1O (single isomer, unassigned; (+)) [(+)-isolariciresinol (5-(+))]

>  <Value Units>
%

>  <Reduction in the bitterness impression>
10.3

$$$$
>  <Molecule>
COc1cc([C@@H]2c3cc(O)c(OC)cc3C[C@H]3C(=O)OC[C@@H]23)ccc1O [(−)-α-conidendrin (6-(−))]

>  <Value Units>
%

>  <Reduction in the bitterness impression>
20.8

$$$$
